TARGET SYSTEM: T1, Human CD137 ECD (human)
T1 construct: also called human CD137 extracellular domain; recombinant human CD137
T1 sequence (chain, as listed by the source limits assumed): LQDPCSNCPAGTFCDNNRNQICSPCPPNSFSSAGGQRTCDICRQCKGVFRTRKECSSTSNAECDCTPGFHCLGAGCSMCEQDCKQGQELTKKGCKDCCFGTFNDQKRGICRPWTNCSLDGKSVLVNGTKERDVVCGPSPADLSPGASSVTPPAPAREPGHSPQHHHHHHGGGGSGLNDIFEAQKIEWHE
METHOD: SPR Biacore T200, 37 C, Ab captured on anti-human Fc, antigen as analyte;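 also: recombinant human CD137 flowed over antibodies held by amine-coupled anti-human Fc on a CM4 chip, run in ACES pH 7.4 buffer with 150 mM NaCl and 0.05% Tween 20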
OUTCOME MEASURE: koff (s⁻¹)
Reply numerically in s⁻¹, unit not repeated.

Look over these answered cases.
H1571L0581 (antibody, V domains shown, Dual-Ig, IgG; also called dBBDu183H1571/dBBDu072L0581) VH: QVQLVESGGGLVQPGRSLRLSCAASGFKFSNVWFHWVRQAPGKGLEWVAQIKDKYNAYATYYAPSVKGRFTISRDDSKNSIYLQMNSLKTEDTAVYYCHYVHYASASTLLPAFGVDAWGQGTTVTVSS VL: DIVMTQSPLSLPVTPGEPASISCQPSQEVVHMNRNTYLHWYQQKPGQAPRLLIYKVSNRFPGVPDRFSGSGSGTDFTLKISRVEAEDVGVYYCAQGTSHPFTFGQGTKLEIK = 0.00105
H1649L0943 (antibody, V domains shown, Dual-Ig, IgG; also called dBBDu183H1649/dBBDu072L0943) VH: QVQLVESGGGLVQPGRSLRLSCAASGFVFSNVWFHWVRQAPGKGLEWVAQIKDKYNAYADYYAPSVKERFTISRDDSKNSIYLQMNSLKTEDTAVYYCHYVHYASASTLLPAEGVDAWGQGTTVTVSS VL: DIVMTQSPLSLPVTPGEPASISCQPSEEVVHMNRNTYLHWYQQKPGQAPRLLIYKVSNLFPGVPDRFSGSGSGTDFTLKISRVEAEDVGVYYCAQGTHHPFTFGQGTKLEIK = 0.000468

As a next step, examine the binder that follows.
Query: // lookup koff for H1673L0581 (antibody, V domains shown, Dual-Ig, IgG; also called dBBDu183H1673/dBBDu072L0581) VH: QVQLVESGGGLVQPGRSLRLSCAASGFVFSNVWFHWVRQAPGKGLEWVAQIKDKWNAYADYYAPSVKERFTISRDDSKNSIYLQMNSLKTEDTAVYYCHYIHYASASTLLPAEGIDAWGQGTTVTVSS VL: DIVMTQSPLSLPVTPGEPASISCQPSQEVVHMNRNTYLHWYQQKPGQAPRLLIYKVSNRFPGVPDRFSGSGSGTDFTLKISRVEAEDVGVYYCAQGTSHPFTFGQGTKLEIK
Result: 0.00096
